Values compiled from ChEMBL document CHEMBL1157539.

Consider the following molecules; for each one, report its Inhibition.
System: Plasmodium falciparum
Assay: GSK_TCMDC: Inhibition of Plasmodium falciparum 3D7 in whole red blood cells, using parasite LDH activity as an index of growth. Test compounds present at 2uM
Format: functional
One number for each entry, in %.

Provide the reported Inhibition of each entry below, same order.
1. Cc1c(Cc2ccc(C(C)C)cc2)cnc2nc(N)nc(N)c12
2. Cn1ccnc1CCC(=O)Nc1ccc(Cl)cc1C(=O)Nc1ccc(Cl)cc1
3. CC(C)CCNCc1ccc(OCc2cccc(C(=O)Nc3ccccc3)c2)c(I)c1.O=C(O)C(F)(F)F
4. NC(=O)c1ccc(C(=O)Nc2cccc(-c3cccc(-c4nc5cc(C(F)(F)F)ccc5[nH]4)c3)c2)cc1

Ans:
1. 97
2. 92
3. 100
4. 100

Q: If you can, please state the reported Inhibition value of O=[N+]([O-])c1ccc2nc(Nc3ccc(Cl)c(Cl)c3)c(Nc3ccc(Cl)c(Cl)c3)nc2c1 .
Ans: 100

====

System: Plasmodium falciparum
Experiment: GSK_TCMDC: Inhibition of Plasmodium falciparum Dd2 in whole red blood cells, using parasite LDH activity as an index of growth. Test compounds present at 2uM
Assay type: functional
Kind request: treat 50% as inclusive, so Inhibition at 50% or higher is Y, anything lower is N.

Q: Assess whether reported Inhibition for COc1cc2nc(N3CCN(c4nc(N)c5cc(OC)c(OC)cc5n4)CC3)nc(N)c2cc1OC sits at 50% or higher.
Ans: Y

Q: Assess whether reported Inhibition for Cc1nnc2c(NC(=O)NC3CCCC3)cc3ccc(-c4cccc(CN(C)C)c4)cc3n12 sits at 50% or higher.
Ans: N

Q: Assess whether reported Inhibition for O=C(/C=C/c1ccc(Cl)c(Cl)c1)NCCCCCN1CCC(NC(=O)c2cc(Cl)ccc2F)CC1 sits at 50% or higher.
Ans: N

====

Test system: HepG2
Assay: GSK_TCMDC: Percent inhibition of human HepG2 cell line. Test compounds present at 10uM.
Assay type: functional
Kind request: treat 40% as inclusive, so Inhibition at 40% or higher is condition met, anything lower is condition not met.

Q: Assess whether reported Inhibition for O=C(Nc1ccc(Cl)cc1)Nc1ccc(-c2cccc(-c3nc4cc(F)ccc4[nH]3)c2)cc1 sits at 40% or higher.
Ans: condition met

Q: Assess whether reported Inhibition for CC(=O)NCCNCc1cccc(C(=O)NCc2cccc(C(F)(F)F)c2)c1 sits at 40% or higher.
Ans: condition not met

Read the next record carefully.
Q: Assess whether reported Inhibition for CC(CN(C)C)C(=O)Nc1cccc(-c2ccc(-c3nc4cc(F)ccc4[nH]3)cc2)c1 (stereo not given) sits at 40% or higher.
Ans: condition not met

====

System: Plasmodium falciparum
Test: GSK_TCMDC: Inhibition of Plasmodium falciparum Dd2 in whole red blood cells, using parasite LDH activity as an index of growth. Test compounds present at 2uM
Format: functional
// classify(record): look up Inhibition in ranges class 1: < 40%; class 2: ≥ 40% and < 80%; class 3: ≥ 80%

Illustrative cases are given below, each with its answer.
Q: Into which category would you place Cc1cccc(Nc2c(-c3cc(Br)ccc3O)nc3ncccn23)c1 ?
Ans: class 3

Q: Into which category would you place COc1ccccc1C1CCN(C2CCC(NC(=O)/C=C/c3ccc(OC(F)(F)F)cc3)CC2)CC1 (stereo not given) ?
Ans: class 1

Q: Into which category would you place CC(C)(C)C(=O)Nc1ccccc1Oc1ccc(Cl)cc1 ?
Ans: class 3

Read the next record carefully.
Q: Into which category would you place COc1cc2nc(N3CCC(CNCc4ccc(-c5ccc(C(F)(F)F)cc5)cc4)CC3)nc(N)c2cc1OC ?
Ans: class 3

====

Test system: Plasmodium falciparum
Test: GSK_TCMDC: Inhibition of Plasmodium falciparum 3D7 in whole red blood cells, using parasite LDH activity as an index of growth. Test compounds present at 2uM
Type: functional
Consider the following compounds; for each one, report its Inhibition.
One number for each entry, in %.

Q: If you can, please state the reported Inhibition value of Cc1cc(O)c(-c2ccc(Oc3ccc(F)cc3)cc2)c(C)n1 .
Ans: 85

Q: If you can, please state the reported Inhibition value of COc1ccc(-c2ccc(NC(=O)c3cccc(Cl)c3)cc2)cc1CN(C)CCN(C)C.O=C(O)C(F)(F)F .
Ans: 100

Q: If you can, please state the reported Inhibition value of CCN(CC)CCN(Cc1ccc(-c2ccc(C(F)(F)F)cc2)cc1)C(=O)Cn1c(SCc2ccc(F)c(F)c2F)nc(=O)c2c1CCC2.O=C(O)C(O)C(O)C(=O)O .
Ans: 91

Q: If you can, please state the reported Inhibition value of CN1CCN(CCNc2c3ccccc3nc3ccc4ccccc4c23)CC1.Cl .
Ans: 99

---
Q: If you can, please state the reported Inhibition value of O=c1cc(NCCC(CNCc2ccc(Br)o2)NCc2cc(Br)cc(Br)c2)[nH]c2ccccc12 (stereo not given) .
Ans: 98

====

Tested on: Plasmodium falciparum
Assay: GSK_TCMDC: Inhibition of Plasmodium falciparum 3D7 in whole red blood cells, using parasite LDH activity as an index of growth. Test compounds present at 2uM
Format: functional
Consider the following molecules; for each one, report its Inhibition.
Numbers only, in %.

Q: If you can, please state the reported Inhibition value of CCNc1cc(C(=O)N[C@@H](Cc2ccccc2)[C@H](O)CNC2CCC(C)(C)CC2)cc(N2CCCCS2(=O)=O)c1.Cl .
Ans: 98

Q: If you can, please state the reported Inhibition value of CC[C@H](C)CNC(=O)c1ccc(-c2cccc(CN3CCC(N4CCCC4)CC3)c2)nc1.O=C(O)C(F)(F)F .
Ans: 91

Q: If you can, please state the reported Inhibition value of COC(=O)c1cccc(CNCc2cccc(-c3ccc(-c4nc5ccccc5[nH]4)s3)c2)c1.O=C(O)C(F)(F)F .
Ans: 93

Q: If you can, please state the reported Inhibition value of O=C(O)C(F)(F)F.Oc1ccc(CCNc2nc(NCc3ccccc3-c3ccccc3)nc(N3CCCNCC3)n2)cc1 .
Ans: 95

Q: If you can, please state the reported Inhibition value of Clc1ccc2c(NN=Cc3ccco3)ccnc2c1 .
Ans: 100

Q: If you can, please state the reported Inhibition value of O=C(Nc1cc(F)cc(F)c1)N1CCOC(CCN2CCC(c3ccccc3)CC2)(c2ccc(Cl)c(Cl)c2)C1 (stereo not given) .
Ans: 91

Q: If you can, please state the reported Inhibition value of COc1ccc(-c2cccc(NC(=O)c3cccc(C#N)c3)c2)cc1CN1CCNCC1.O=C(O)C(F)(F)F .
Ans: 100

Q: If you can, please state the reported Inhibition value of Clc1cc(Cl)c2cc(CNCCCNc3ccc4ccccc4n3)[nH]c2c1.O=C(O)C(F)(F)F .
Ans: 99

Provide the reported Inhibition of each entry below, same order.
1. Oc1cc2c(cc1CN1CCN(Cc3cccs3)CC1)CCC2
2. COc1cccc(NC(=O)c2ccc(NCCCN3CC(C)CC(C)C3)c([N+](=O)[O-])c2)c1 (stereo not given)
3. CCN1CCC(N(Cc2ccc(-c3ccc(C(F)(F)F)cc3)cc2)C(=O)Cn2c(SCc3ccc(F)cc3)nc(=O)c3c2CCC3)CC1.O=C(O)C(O)C(O)C(=O)O
4. O=c1cc(NCCCNCc2cc(Br)ccc2F)[nH]c2ccccc12
5. Cc1noc(C)c1-c1cccc(CNCc2ccc(-c3cccc(-c4nc5cc(C(F)(F)F)ccc5[nH]4)c3)cc2)c1.O=C(O)C(F)(F)F
6. CCc1c[nH]c2c(N3CCCC3=O)cc(C(=O)N[C@@H](Cc3ccccc3)[C@H](O)CNC3CCCCC3)cc12.O=CO

Ans:
1. 99
2. 100
3. 90
4. 95
5. 100
6. 100

====

Test system: HepG2
Test: GSK_TCMDC: Percent inhibition of human HepG2 cell line. Test compounds present at 10uM.
Assay type: functional
Kind request: treat 20% as inclusive, so Inhibition at 20% or higher is Criterion met, anything lower is Criterion not met.

Illustrative cases are given below, each with its answer.
Q: Assess whether reported Inhibition for COc1ccc(O)c(Cc2cnc3nc(N)[nH]c(=O)c3c2C)c1.CS(=O)(=O)O sits at 20% or higher.
Ans: Criterion met

Q: Assess whether reported Inhibition for N=C(NCc1ccc(O)cc1)Nc1nc(-c2ccc(OCCCn3ccnc3)cc2)cs1 sits at 20% or higher.
Ans: Criterion not met

Q: Assess whether reported Inhibition for O=C(NCCN1CCCC1)c1cccc(Nc2nccc(Nc3ccc(Oc4ccccc4)cc3)n2)c1 sits at 20% or higher.
Ans: Criterion met

---
Q: Assess whether reported Inhibition for Nc1c(Cl)cc(C(O)CNCCCCCOCCc2ccc3ccccc3n2)cc1Cl.O=C(O)/C=C/C(=O)O (centres undefined) sits at 20% or higher.
Ans: Criterion not met

Q: Assess whether reported Inhibition for COc1cc2nc(NCCN3CCOCC3)n3nc(-c4ccccc4)nc3c2cc1OC sits at 20% or higher.
Ans: Criterion not met

Q: Assess whether reported Inhibition for NC(=O)c1cccc(C(=O)Nc2cccc(-c3ccc(-c4nc5cc(C(F)(F)F)ccc5[nH]4)cc3)c2)c1 sits at 20% or higher.
Ans: Criterion met

Q: Assess whether reported Inhibition for O=C(O)C(F)(F)F.Oc1ccc(CCNc2nc(NCc3ccccc3-c3cccc(Cl)c3)nc(N3CCNCC3)n2)cc1 sits at 20% or higher.
Ans: Criterion not met

Q: Assess whether reported Inhibition for COc1ccc(-c2csc3ncnc(Cl)c23)cc1OC sits at 20% or higher.
Ans: Criterion not met

Q: Assess whether reported Inhibition for CCCCCCN1CCC(NCc2ccc(CN(C)C)cc2)CC1.O=C(O)C(F)(F)F sits at 20% or higher.
Ans: Criterion not met
